- measurement_target: T1, cynomolgus monkey OX40 protein (Novoprotein, #CB17) (cynomolgus monkey)
- T1 construct: Bought recombinant protein; also called cyno OX40
- measurement_description: ELISA, coated cyno OX40 protein
recorded_metric: EC50 (nM)

binder: PR002072 (antibody, human IgG1, V domains shown, no light chain; also called anti-OX40 HCAb antibody) VH: EVQLLESGGGLVQPGGSLRLSCAASGFTFSSYAMSWVRQASGKGLEWISAISGSGGSTYYADSVRGRFTISRDNSKNTLYLQMNSLRADDTAVYYCANGMTGTTDVDFWGQGTPVTVSS
value_unit: nM
result_number: 0.217

binder: PR002056 (antibody, human IgG1, V domains shown, no light chain; also called anti-OX40 HCAb antibody) VH: EVQLLESGGGLVQPGGSLRLSCAASGFTFSSYAMSWVRQAPGKGLEWVSAISGGGGSIFYADSVRGRFTISRDNSKNTLYLQMNSLRAEDTAVYYCANGMTGTTDVDYWGQGTLVTVSS
value_unit: nM
result_number: 0.0682

These data points were gathered from patent US20230295324A1.
